- Tested on: MDA-MB-231
- Measurement Protocol: Inhibition of MDA-MB-231 cell proliferation after seven days
- Type: functional, cell-based
- Measurement Conditions: Homo sapiens, MDA-MB-231, 168 h
pIC50: −log10 of the molar value.

| Smiles Structure | pIC50 |
| --- | --- |
| CC1(C)CCC(C)(C)c2cc(C(=C3CC3)c3ccc(C(=O)O)cc3)ccc21 | 5.96 |

* * *

- Target System: Retinoic acid receptor RXR-alpha (Homo sapiens, UniProt P19793)
- Sequence (P19793 whole entry): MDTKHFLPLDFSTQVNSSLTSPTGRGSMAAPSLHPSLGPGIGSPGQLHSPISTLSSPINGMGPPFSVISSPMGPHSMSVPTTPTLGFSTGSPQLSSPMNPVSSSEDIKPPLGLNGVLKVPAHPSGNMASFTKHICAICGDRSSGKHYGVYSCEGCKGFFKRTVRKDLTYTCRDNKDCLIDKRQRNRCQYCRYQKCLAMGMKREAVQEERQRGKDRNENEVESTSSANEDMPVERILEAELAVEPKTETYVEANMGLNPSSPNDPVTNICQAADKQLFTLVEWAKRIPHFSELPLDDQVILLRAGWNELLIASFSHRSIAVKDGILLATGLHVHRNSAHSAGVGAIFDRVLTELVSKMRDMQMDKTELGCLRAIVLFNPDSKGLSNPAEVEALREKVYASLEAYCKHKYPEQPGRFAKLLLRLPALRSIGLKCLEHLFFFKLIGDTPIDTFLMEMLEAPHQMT
- Measurement Protocol: Transcriptional activation in CV-1 cells expressing Retinoid X receptor RXR-alpha
- Type: cell-based, Cercopithecidae

| Smiles Structure | Scale Unit | Value Relation Sign | AC50 |
| --- | --- | --- | --- |
| CC(C)=C(c1ccc(C(=O)O)cc1)c1ccc2c(c1)C(C)(C)CCC2(C)C | nM | = | 160 |
| CC(C)=C(c1ccc(C(=O)O)cc1)c1cc2c(cc1C)C(C)(C)CCC2(C)C | nM | = | 22 |
| CC1(C)CCC(C)(C)c2cc(C(=C3CC3)c3ccc(C(=O)O)cc3)ccc21 | nM | = | 5 |
| CC(C)/C=C(/c1ccc(C(=O)O)cc1)c1ccc2c(c1)C(C)(C)CCC2(C)C | nM | > | 1000 |
| Cc1cc2c(cc1C(=C1CC1)c1ccc(C(=O)O)cc1)C(C)(C)CCC2(C)C | nM | < | 10 |
